Catalogue of compounds with associated pKd
Target: GDP-bound KRAS wild-type protein (Homo sapiens, UniProt P01116)
Sequence (P01116 1-188 isoform P01116-2): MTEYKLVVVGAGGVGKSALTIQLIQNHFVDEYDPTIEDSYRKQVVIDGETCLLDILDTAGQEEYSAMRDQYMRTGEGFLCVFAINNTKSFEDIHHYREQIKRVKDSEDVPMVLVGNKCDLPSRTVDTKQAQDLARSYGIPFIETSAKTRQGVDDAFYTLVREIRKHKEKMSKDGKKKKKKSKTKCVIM
Test: Binding to KRAS by surface plasmon resonance (SPR), dissociation constant KD
Conditions: 1:1 binding model
Experimental: Surface plasmon resonance was used to analyze the binding affinity of compounds for KRAS, NRAS, and HRAS. […] The resulting sensorgram was subjected to curve fitting based on a 1:1 binding model on Biacore Insight Evaluation Software or T200 Evaluation Software, and thereby the dissociation constant KD of each compound with respect to KRAS, NRAS, and HRAS was determined. […]
Where a SMILES comes first, the peptide text is derived from it. Bridges are numbered along the chain shown (N, C = ends). [ ]: non-standard residue; d: D form. The star is where a group is joined. hPhe(3-Cl-4-CF3) = N[C@@H](CCc1ccc(C(F)(F)F)c(Cl)c1)C(=O)O; NEtPhe(4-CF3) = CCN[C@@H](Cc1ccc(C(F)(F)F)cc1)C(=O)O; NMeGly(cPent) = CN[C@H](C(=O)O)C1CCCC1; NMeD = CN[C@@H](CC(=O)O)C(=O)O; NMeL = CN[C@@H](CC(C)C)C(=O)O; Morpholide = C1CN(*)CCO1; Aib = CC(C)(N)C(=O)O; Sar = CNCC(=O)O
As a rule, pKd stands for the negative log10 of the concentration, concentration in M.

Observe how each entry below is paired with its result.
compound="CCC[C@H]1C(=O)N[C@@H]([C@@H](C)CC)C(=O)N(C2CC2)CC(=O)N(C)[C@H]2C/C=C\\CCN(C2=O)[C@@H](Cc2ccc(C(F)(F)F)cc2)C(=O)N(C)CC(=O)N[C@@H](CCc2ccc(C(F)(F)F)c(OC)c2)C(=O)N2C[C@H](OCC)C[C@H]2C(=O)NC2(CC(C)(C)C2)C(=O)N(C)[C@@H](CC(C)(C)C)C(=O)N(C)[C@H](C(=O)N(C)C)CC(=O)N1C [PP2746]" measured_target="GDP-bound KRAS wild-type protein (Homo sapiens, UniProt P01116)" readout_label=pKd endpoint_result=9.55
compound="CCOC[C@H]1C(=O)N[C@@H]([C@@H](C)CC)C(=O)N(C)CC(=O)N(C)[C@H]2C/C=C\\CCN(C2=O)[C@@H](CC2CCCCC2)C(=O)N(C)CC(=O)N[C@@H](CCc2ccc(C(F)(F)F)c(OC)c2)C(=O)N2C[C@H](OCC)C[C@H]2C(=O)NC2(CC(C)(C)C2)C(=O)N(C)[C@@H](C(CC)CC)C(=O)N(C)[C@H](C(=O)N(C)C)CC(=O)N1C [PP2470]" measured_target="GDP-bound KRAS wild-type protein (Homo sapiens, UniProt P01116)" readout_label=pKd endpoint_result=8.74
compound="CC[C@H](C)[C@@H]1NC(=O)[C@H](CC(C)C)N(C)C(=O)C[C@@H](C(=O)N2CCOCC2)N(C)C(=O)[C@H](C2CCCC2)N(C)C(=O)C(C)(C)NC(=O)[C@@H]2CCCN2C(=O)[C@H](CCc2ccc(C(F)(F)F)c(Cl)c2)NC(=O)CN(C)C(=O)[C@H](Cc2ccc(C(F)(F)F)cc2)N(CC)C(=O)CN(C)C(=O)CN(C)C1=O [PP0235] ([NMeL]I[Sar][Sar][NEtPhe(4-CF3)][Sar][hPhe(3-Cl-4-CF3)]P[Aib][NMeGly(cPent)][NMeD]-Morpholide; lactam N-11)" measured_target="GDP-bound KRAS wild-type protein (Homo sapiens, UniProt P01116)" readout_label=pKd endpoint_result=9.82

Please turn your attention to the following entry.
Exercise: // fetch GDP-bound KRAS wild-type protein (Homo sapiens, UniProt P01116) pKd for CCCOC[C@H]1C(=O)N[C@@H]([C@@H](C)CC)C(=O)N(C)CC(=O)N(C)[C@H]2C/C=C\CCN(C2=O)[C@@H](Cc2ccc(C)cc2)C(=O)N(C)CC(=O)N[C@@H](CCc2ccc(C(F)(F)F)c(Cl)c2)C(=O)N2C[C@@H](C)C[C@H]2C(=O)NC2(CC(C)(C)C2)C(=O)N(C)[C@@H](C2CCCC2)C(=O)N(C)[C@H](C(=O)N(C)C)CC(=O)N1C [PP2453]
Key: 10.05
